biological target: CGRP1 receptor (CRLR/RAMP1 complex) of human neuroblastoma SK-N-MC cells (human, UniProt Q16602 23-461; O60894 27-148); experiment: cell-based or functional assay
Sequence (Q16602 23-461, chain 1 of 2): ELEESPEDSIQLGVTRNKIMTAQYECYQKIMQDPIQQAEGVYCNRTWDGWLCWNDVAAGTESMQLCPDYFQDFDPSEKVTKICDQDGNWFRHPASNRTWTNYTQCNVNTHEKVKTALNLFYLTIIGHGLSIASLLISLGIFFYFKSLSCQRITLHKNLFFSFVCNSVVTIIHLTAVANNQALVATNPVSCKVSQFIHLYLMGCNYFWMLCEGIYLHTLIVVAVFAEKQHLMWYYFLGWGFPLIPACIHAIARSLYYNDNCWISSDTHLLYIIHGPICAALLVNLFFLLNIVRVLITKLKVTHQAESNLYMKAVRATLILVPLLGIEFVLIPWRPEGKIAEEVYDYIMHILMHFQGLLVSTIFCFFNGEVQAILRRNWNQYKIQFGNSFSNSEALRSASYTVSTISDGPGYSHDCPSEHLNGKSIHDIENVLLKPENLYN
Sequence (O60894 27-148, chain 2 of 2): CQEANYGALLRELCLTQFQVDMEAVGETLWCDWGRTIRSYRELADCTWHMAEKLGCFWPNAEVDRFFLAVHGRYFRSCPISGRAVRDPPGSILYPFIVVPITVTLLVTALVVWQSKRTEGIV
Please go through the items and note down their IC50.
Return type: number; implicit unit nM.

Identify measured IC50 associated with WVTHRLAGLLSXSGGVVRKNFVPTDVGPFAF (Ac-WVTHRLAGLLS(hR)SGGVVRKNFVPTDVGPFAF-NH2) [SEQ ID NO 23]
0.57

Provide one value: measured IC50 of WVTHXLAGLLSXSGGVVRKNFVPTDVGPFAF (Ac-WVTH(hR)LAGLLS(hR)SGGVVRKNFVPTDVGPFAF-NH2) [SEQ ID NO 25]
2.1

Quickly give me recorded IC50 for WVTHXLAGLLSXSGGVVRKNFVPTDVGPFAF (Ac-WVTH(Cit)LAGLLS(Cit)SGGVVRKNFVPTDVGPFAF-NH2; 20 k Da PEG, Amine linkage) [SEQ ID NO 32]
3.74

Input WVTHRLAGLLSXSGGVVRKNFVPTDVGPFAF (Ac-WVTHRLAGLLS(Cit)SGGVVRKNFVPTDVGPFAF-NH2) [SEQ ID NO 29] , output reported IC50.
0.58

Give recorded IC50. Ac-WVTHQLAGLLSQSGGVVRKNFVPTDVGPFAF-NH2 (not fully specified (residue 19); printed as Ac-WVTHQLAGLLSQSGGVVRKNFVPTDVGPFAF-NH2) [SEQ ID NO 40]
1.33

# return recorded IC50 for entry Ac-WVTHRLAGLLSQSGGVVRKNFVPTDVGPFAF-NH2 (not fully specified (residue 19); printed as Ac-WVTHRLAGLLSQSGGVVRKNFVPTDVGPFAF-NH2) [SEQ ID NO 38]
0.11

Identify IC50 associated with the binder WVTHXLAGLLSRSGGVVRKNFVPTDVGPFAF (Ac-WVTH(Cit)LAGLLSRSGGVVRKNFVPTDVGPFAF-NH2) [SEQ ID NO 27]
0.57

Provide measured IC50 value, entry: WVTHXLAGLLSRSGGVVRKNFVPTDVGPFAF (Ac-WVTH(hR)LAGLLSRSGGVVRKNFVPTDVGPFAF-NH2) [SEQ ID NO 21]
0.44

Specify IC50 for Ac-WVTHRLAGLLSASGGVVRCNFVPTDVGPFAF-NH2 (not fully specified (residue 19); printed as Ac-WVTHRLAGLLSASGGVVRCNFVPTDVGPFAF-NH2) [SEQ ID NO 34] and stop.
6.2

Item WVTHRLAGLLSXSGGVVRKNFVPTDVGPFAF (Ac-WVTHRLAGLLS(hR)SGGVVRKNFVPTDVGPFAF-NH2; 20 k Da PEG, Amine linkage) [SEQ ID NO 24] : provide IC50
0.33

Answer with the recorded IC50 of Ac-WVTHRLAGLLSQSGGVVRCNFVPTDVGPFAF-NH2 [SEQ ID NO 35] only.
0.37

# credit: patent US20080020978A1
